Hi there, I'd appreciate the recorded chromatographic logP for every entry that follows.
- protocol_description: Reversed-phase partition chromatography (Rm)
- Type: physicochemical
- conditions_used: lipophilic-hydrophilic balance, linearly related to 1-octanol/water partition coefficients

Record summary for "COc1cc(NP(=O)(OC)OC)ccc1Nc1c2ccccc2nc2c(C)cccc12" : reported chromatographic logP = 0.44

Record summary for "CNC(=O)c1cccc2c(Nc3ccc(NP(=O)(OC)OC)cc3OC)c3ccccc3nc12" : reported chromatographic logP = 0.28

Record summary for "COP(=O)(Nc1ccc(Nc2c3cccc(C)c3nc3c(C)cccc23)cc1)OC" : reported chromatographic logP = 0.37

Record summary for "CNC(=O)c1cccc2c(Nc3ccc(NP(=O)(OC)OC)cc3)c3ccccc3nc12" : reported chromatographic logP = 0.18

Record summary for "COc1cc(NP(=O)(OC)OC)ccc1Nc1c2ccccc2nc2cc(Br)ccc12" : reported chromatographic logP = 0.57

Record summary for "CNC(=O)c1cccc2c(Nc3ccc(NP(=O)(OC)OC)cc3OC)c3ccc(Cl)cc3nc12" : reported chromatographic logP = 0.54

Record summary for "COc1cc(NP(=O)(OC)OC)ccc1Nc1c2ccccc2nc2ccccc12" : reported chromatographic logP = 0.47
